Origin of values: PubChem BioAssay

- Tested on: Chordin-like protein 2 (CHRDL2)
- method notes: compounds binding chordin-like 2 – biochemical, small-molecule microarray, 635 nm fluorescence, primary screen (AID 1126);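 further: printed compound slides probed with Chrdl2 protein at 4 µg/mL for 1 h at 4 C; score merges 667 nm emission intensity with signal to noise over three replicate slides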
- measurement setup: fluorescence 635 nm, higher = more signal
attribute measured: composite z-score

# molecule, data value
rows = [
    ("CCCC(=O)N(CCc1c[nH]c2ccccc12)[C@@H]1CC(C(=O)NCCO)=C[C@H](Oc2c(I)cc(CO)cc2OC)[C@H]1O", 0.144),
    ("C=CC[C@]1(C(N)=O)COC(c2ccc(OCCCO)cc2)=N1", 0.0919),
    ("O=c1cccc(-c2ccccc2Cl)o1", 0.0431),
    ("C=C(CCCC)/C(=C/C[C@H](OC(=O)c1ccncc1)c1ccc(OCCO)cc1)c1cc(C(=O)OC)ccc1OC", -0.257),
    ("CCOC(=O)C1=CCC(c2ccc(F)cc2)N(S(=O)(=O)c2ccc(C)cc2)C1 (configuration not stated)", 0.563),
    ("O=C(NC1CC1)[C@@H]1c2ccccc2C(=O)N(Cc2cc(F)cc(C(F)(F)F)c2)[C@H]1c1ccc(CO)cc1", -0.791),
    ("CCCCC(O)C1C=CC2C(=O)N(C)C(=O)C2N1N1CCCCC1 (configuration not stated)", 0.372),
]

----------
- test system: NADPH oxidase 5 (Homo sapiens)
- method notes: compounds shifting NOX5 Amplex Red fluorescence – cell-based, HEK293-NOX5, NOX inhibitor project, primary screen (AID 1161)
- measurement setup: HEK293-NOX5, ionomycin, 45 min, higher = more signal
z-score values by entry

# molecule, test system, z-score
measured = [
    ("COc1ccc(C(=O)Nc2ccc(CN3C(=O)[C@]4(O[C@H](CC(=O)N5CCC[C@H]5CO)[C@@H]([Si](C)(C)c5ccc(OC)cc5)[C@@H]4C)c4ccccc43)cc2)cc1", "NADPH oxidase 5 (Homo sapiens)", 4.87),
    ("CC(C)[C@@H](C(=O)O)n1cc(C2(O)CCCCC2)nn1", "NADPH oxidase 5 (Homo sapiens)", -0.658),
    ("N#Cc1ccc(C(O)C2C=CC3C(=O)N(c4ccccc4)C(=O)C3N2Nc2ccccc2F)cc1 (stereo not drawn)", "NADPH oxidase 5 (Homo sapiens)", -2.02),
]

----------
composite z-score values by entry
- test system: Torsin-1A-interacting protein 1 (Homo sapiens) (UniProt Q5JTV8)
- Sequence (Q5JTV8 whole entry, looked up): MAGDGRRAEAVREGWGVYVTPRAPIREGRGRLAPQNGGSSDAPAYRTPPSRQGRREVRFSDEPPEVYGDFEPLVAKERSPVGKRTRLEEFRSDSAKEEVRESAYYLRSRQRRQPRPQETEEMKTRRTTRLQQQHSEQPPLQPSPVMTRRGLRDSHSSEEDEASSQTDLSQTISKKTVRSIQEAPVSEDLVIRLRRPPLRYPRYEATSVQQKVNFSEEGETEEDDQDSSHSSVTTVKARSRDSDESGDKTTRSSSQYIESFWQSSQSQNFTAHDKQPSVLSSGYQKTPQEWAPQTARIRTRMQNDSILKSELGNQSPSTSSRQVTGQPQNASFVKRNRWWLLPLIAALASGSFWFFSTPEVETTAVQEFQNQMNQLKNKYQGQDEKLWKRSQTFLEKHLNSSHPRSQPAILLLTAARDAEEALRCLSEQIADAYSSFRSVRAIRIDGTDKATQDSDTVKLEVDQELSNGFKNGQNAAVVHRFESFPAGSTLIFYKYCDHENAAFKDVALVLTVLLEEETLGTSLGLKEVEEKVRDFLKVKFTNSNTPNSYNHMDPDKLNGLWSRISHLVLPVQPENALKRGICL
- method notes: compound microarray binding of lysate hLAP1 – cell lysate, small-molecule microarray, COS7 lysate, 635/667 nm fluorescence, primary screen (AID 1116)
- measurement setup: 635 nm fluorescence, higher = more signal
attribute measured: composite z-score

# compound, attribute measured, data value
measured = [
    ("COc1ccc(C#Cc2ccc3c(c2)[C@]2(C(=O)N3)[C@H](c3ccc(O)cc3)N3[C@H](c4ccccc4)[C@H](c4ccccc4)OC(=O)[C@H]3[C@@H]2C(=O)N2CCc3cc(OC)c(OC)cc3C2)cc1", "composite z-score", 0.7),
    ("C=CCC(OC(C)=O)[C@@H]1[C@@H](N(Cc2ccc(-c3cccc(C(F)(F)F)c3)o2)C(=O)c2cccc3ccccc23)c2cc(OCCCO)ccc2N1C(=O)Cc1ccc2ccccc2c1 (some centres undefined)", "composite z-score", 0.0212),
    ("O=C1NC(=O)C2C1C=CC(C(O)C1CC=CCC1)N2Nc1ccccn1 (centres undefined)", "composite z-score", 1.22),
    ("COC(=O)[C@@]1(Cc2ccc(F)cc2)[C@H]2c3cc(C(=O)N(C)C)n(Cc4cc(C)n(C)n4)c3C[C@H]2CN1C(=O)c1ccccc1", "composite z-score", 2.58),
]

----------
- method notes: small molecules captured by biotinylated probe aFGF10 – biochemical, small-molecule microarray, fluorescence 635/667, stem cell growth factor project, primary screen (AID 1071);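 further: score merges 667 nm spot intensity and signal to noise from triplicate slides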
- measurement setup: higher = more signal
composite z-score values by entry

# molecule, composite z-score
data = [
    ("CN1C(=O)C2C=CC(C(O)c3ccccc3)N(N3CCCCC3)C2C1=O (centres undefined)", 1.02),
    ("COCCOC(=O)N1C(=O)[C@@]2(c3ccccc31)[C@H](C(=O)N1CCCCCCC1)[C@H]1C(=O)O[C@H](c3ccccc3)[C@H](c3ccccc3)N1[C@@H]2c1ccc(OCCO)cc1", 1.49),
    ("[N-]=[N+]=NCc1ccccc1[C@@H]1OC(c2ccc(OCCCO)cc2)=N[C@]1(CCS(=O)(=O)c1ccccc1)C(=O)N1CCCCC1", 0.398),
    ("COC(=O)C(CC#Cc1ccc2c(c1)[C@]1(C(=O)N2)[C@H](c2ccccc2OCCO)N2[C@H](c3ccccc3)[C@H](c3ccccc3)OC(=O)[C@H]2[C@@H]1C(=O)O)C(=O)OC", 0.866),
    ("C=CCC(OC(C)=O)[C@@H]1[C@@H](N(Cc2cc3ccccc3o2)C(=O)Cc2ccc(OC)cc2)c2cc(OCCCO)ccc2N1C(=O)c1ccc2ccccc2c1 (some centres undefined)", 0.0575),
    ("O=C1NC(=O)C2C1C=CC(C(O)c1ccc(I)cc1)N2Nc1ccc(Cl)cc1Cl (centres undefined)", 0.29),
    ("COC(=O)C[C@H]1O[C@@H](CCc2ccccc2)[C@@H](C)[C@@H]1[Si](C)(C)c1ccc(OC)cc1", -0.318),
    ("COc1ccc([C@H]2C[C@H]3C(I)=C[C@@H]2C(=O)[C@]32CO2)cc1", 0.17),
    ("COc1cc(OC)c(C(O)C2C=CC3C(=O)NC(=O)C3N2Nc2ccccn2)cc1Br (centres undefined)", 0.561),
]

----------
z-score values by entry
- method notes: Pseudomonas biofilm growth suppression – PAO1 strain, BacTiter-Glo luminescence, LB-PBS, primary screen (AID 1144)
- measurement setup: P. aeruginosa PAO1 biofilm, 12 h, higher = more signal
attribute measured: z-score

# compound, data value
measured = [
    ("CO[C@H]1O[C@H](CO)[C@@H](OC(=O)Nc2ccc(Oc3ccccc3)cc2)[C@H](OC(=O)Nc2ccc3c(c2)OCO3)[C@@H]1OC(=O)Nc1ccc2c(c1)OCO2", -0.168),
    ("COc1ccc(CCNC(=O)[C@@]2(c3ccc([N+](=O)[O-])cc3)CC(=O)N(CC34CC5CC(CC(C5)C3)C4)[C@@H]2c2ccc(CO)cc2I)cc1", -1.53),
    ("CN1C(=O)C2C=CC(C(O)c3ccccc3)N(N3CCCCC3)C2C1=O (stereo not drawn)", -0.127),
    ("COC(=O)C(CC#Cc1ccc2c(c1)[C@]1(C(=O)N2)[C@H](c2ccccc2OCCO)N2[C@H](c3ccccc3)[C@H](c3ccccc3)OC(=O)[C@H]2[C@@H]1C(N)=O)C(=O)OC", 0.502),
    ("CCCC[C@H]1C[C@@H]1[C@@H]1N(P(=O)(c2ccccc2)c2ccccc2)C[C@@](O)(c2ccccc2)CC12CC2", 0.922),
    ("C=CCNC(=O)[C@H]1[C@@H]2C(=O)O[C@@H](c3ccccc3)[C@@H](c3ccccc3)N2[C@@H](c2ccc(OCCO)cc2)[C@]12C(=O)Nc1ccc(C#CCC(C(=O)OC)C(=O)OC)cc12", 0.626),
    ("C=C(CCCC)/C(=C/C[C@H](OC(C)=O)c1ccc(OCCO)cc1)c1cnc2ccccc2c1", -0.829),
    ("NC(=O)[C@@H]1[C@H]2C(=O)O[C@H](c3ccccc3)[C@H](c3ccccc3)N2[C@H](c2ccc(O)cc2)[C@@]12C(=O)Nc1ccc(C#CC3=CCCCC3)cc12", 0.403),
]

----------
- method notes: plasmodial surface anion channel blockers, osmotic lysis – cell-based, P. falciparum Indochina, OD700, 1 h, primary screen (AID 1154)
- measurement setup: P. falciparum Indochina infected RBC osmotic lysis, called active from +8 up or from −8 down
The source made the active and inactive calls.
Outcomes: active, inactive

# molecule, class name
rows = [
    ("C=C(CCCC)/C(=C/C[C@@H](OC(C)=O)c1ccccc1OCCO)c1cc(C(=O)OC)ccc1OC", "active"),
    ("O=C(CS)NCCCCCNC(=O)[C@@H]1C[C@@H]2C(=O)NCC(=O)N2[C@@H]1c1ccc(O)cc1", "inactive"),
    ("[N-]=[N+]=Nc1ccccc1C[C@@]1(C(=O)N2CCCCC2)N=C(c2ccc(OCCCO)cc2)O[C@@H]1c1ccccc1", "active"),
]

----------
- test system: Torsin-1A-interacting protein 2 (Homo sapiens) (UniProt Q8NFQ8)
- Sequence (Q8NFQ8 whole entry, looked up): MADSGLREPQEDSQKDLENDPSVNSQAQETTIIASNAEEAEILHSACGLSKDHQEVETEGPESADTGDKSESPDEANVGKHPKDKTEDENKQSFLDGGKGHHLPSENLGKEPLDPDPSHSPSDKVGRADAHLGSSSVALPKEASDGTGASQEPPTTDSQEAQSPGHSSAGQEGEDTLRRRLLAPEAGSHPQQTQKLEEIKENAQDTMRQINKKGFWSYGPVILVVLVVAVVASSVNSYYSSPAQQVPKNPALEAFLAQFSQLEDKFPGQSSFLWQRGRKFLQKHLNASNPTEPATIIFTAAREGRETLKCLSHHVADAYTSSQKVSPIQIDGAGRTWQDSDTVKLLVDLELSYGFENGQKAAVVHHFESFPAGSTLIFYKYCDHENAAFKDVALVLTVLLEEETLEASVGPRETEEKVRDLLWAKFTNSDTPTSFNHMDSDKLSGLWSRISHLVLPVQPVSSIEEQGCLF
- method notes: small molecules binding lysate-expressed LULL1 – cell lysate, human LULL1 lysate, 635/667 nm fluorescence, primary screen (AID 1092);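 further: probe is lysate of COS7 cells overexpressing human LULL1; score merges per-feature 667 nm fluorescence with signal-to-noise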
- measurement setup: small-molecule microarray, hLULL1 lysate binding, 635 nm fluorescence; higher = more signal
Each entry gets not satisfied if its composite z-score stays under 2, and satisfied if its composite z-score is 2 or above.

# molecule, class name
measured = [
    ("CCCCC(O)C1C=CC2C(=O)N(C)C(=O)C2N1N1CCCCC1 (configuration not stated)", "satisfied"),
    ("CCCNC(=O)[C@@H]1c2ccccc2C(=O)N(Cc2ccccc2OC)[C@H]1c1ccc(CO)cc1", "satisfied"),
    ("C=CC[C@]12N=C(c3ccc(OCCCO)cc3)O[C@H]1c1ccccc1N(CCS(=O)(=O)c1ccccc1)C2=O", "satisfied"),
    ("O=C1NC(=O)C2C1C=CC(C(O)C=Cc1ccc([N+](=O)[O-])cc1)N2Nc1ccc(Cl)cc1Cl (configuration not stated)", "satisfied"),
    ("COC(=O)c1c2oc(c1C(=O)OC)C(=O)NC1(CCCCC1)c1cn(nn1)C[C@H](Cc1ccccc1)NC(=O)N[C@H](CO)CC2", "satisfied"),
    ("C=CC[C@]1(C(N)=O)N=C(c2ccc(OCCCO)cc2)O[C@H]1c1ccccc1", "satisfied"),
    ("[N-]=[N+]=Nc1ccccc1C[C@]1(C(=O)N2CCCCC2)COC(c2ccc(OCCCO)cc2)=N1", "satisfied"),
    ("COc1ccc(CCNC(=O)[C@@]2(c3ccc([N+](=O)[O-])cc3)CC(=O)N(CC34CC5CC(CC(C5)C3)C4)[C@@H]2c2ccc(CO)cc2I)cc1", "satisfied"),
    ("C#CCN1[C@@H](Cc2ccc(O)cc2)C(=O)O[C@H](Cc2ccccc2)[C@@H]1/C=C/C1CC1", "not satisfied"),
    ("CCOC(=O)C[C@H]1[C@H](OC(=O)c2ccc(C(=O)c3ccccc3)cc2)[C@@H](NC(=O)Cc2ccc(OC)cc2)c2cc(OCCCO)ccc2N1C(=O)c1ccc2ccccc2n1", "not satisfied"),
    ("COC(=O)[C@@]1(Cc2ccccc2)[C@H]2c3cc(C(=O)N4CCCC4)n(Cc4ccc(O)c(OC)c4)c3C[C@H]2CN1C(=O)c1ccccc1", "satisfied"),
    ("C=CCN1Cc2ccccc2[C@@H]2OC(c3ccc(OCCCO)cc3)=N[C@]2(CCS(=O)(=O)c2ccccc2)C1=O", "satisfied"),
    ("C=CCNC(=O)[C@H]1[C@@H]2C(=O)O[C@@H](c3ccccc3)[C@@H](c3ccccc3)N2[C@@H](c2ccc(OCCO)cc2)[C@]12C(=O)Nc1ccc(C#CCC(C(=O)OC)C(=O)OC)cc12", "satisfied"),
    ("COc1ccc(NN2C(C(O)c3ccc(N(C)C)cc3)C=CC3C(=O)N(C4CCCCC4)C(=O)C32)cc1 (configuration not stated)", "satisfied"),
    ("C=C(CCCC)/C(=C/C[C@H](OC(C)=O)c1ccc(OCCO)cc1)c1cnc2ccccc2c1", "not satisfied"),
    ("COc1ccc([C@H]2OC[C@@H]3CCC(=O)N32)cc1", "not satisfied"),
    ("C=CC[C@]1(C(=O)NCc2ccccc2)N=C(c2ccc(OCCCO)cc2)O[C@H]1c1ccccc1CN=[N+]=[N-]", "satisfied"),
    ("C=C(CCCC)/C(=C/C[C@@H](OC(C)=O)c1ccccc1OCCO)c1cc(C(=O)OC)ccc1OC", "not satisfied"),
    ("CS(=O)(=O)CCOC(=O)C1=CC(CCCO)=CC(c2ccc(CN3CCCC3)cc2)N(Cc2cccc(OC(F)(F)F)c2)C=C1C(=O)OCCS(C)(=O)=O (configuration not stated)", "satisfied"),
    ("O=C1C2C=CC(C(O)COCc3ccccc3)N(Nc3ccc([N+](=O)[O-])cc3)C2C(=O)N1c1ccccc1 (configuration not stated)", "satisfied"),
    ("CCN(CC)c1ccc(N2CC=CC34O[C@@H]5/C=C\\CCC(C)OC(=O)C5[C@H]3C(=O)N(CCCCCO)[C@@H]4C2=O)cc1 (some centres not stated)", "not satisfied"),
    ("O=C1C[C@@](C(=O)NCc2ccccc2)(c2ccc([N+](=O)[O-])cc2)[C@@H](c2ccc(CO)cc2)N1CC12CC3CC(CC(C3)C1)C2", "satisfied"),
    ("CCCNC(=O)[C@@]1(Sc2ccc(C)cc2)CC(=O)N(Cc2ccccc2C(F)(F)F)[C@@H]1c1ccc(CO)cc1I", "satisfied"),
    ("COCCCNC(=O)[C@@]1(CCS(=O)(=O)c2ccccc2)N=C(c2ccc(OCCCO)cc2)O[C@H]1c1ccccc1N=[N+]=[N-]", "satisfied"),
    ("COCC(=C=CC[C@@H](O)c1ccc(OCCO)cc1)C[C@@H](O)c1ccccn1", "not satisfied"),
    ("O=C1OCCC/C=C\\[C@H]2OC34C=CCN(c5ccc6ccccc6c5)C(=O)[C@H]3N(CCCCCO)C(=O)[C@@H]4C12 (some centres not stated)", "not satisfied"),
]
